Entries and their measured Index 1 (binding affinity, inverse KD relative to the Average 3.52) follow.
biological target: T1, human c-Met (Sino Biological) (human, UniProt P08581 25-932, limits assumed); assay: derived from the Biacore KD, printed 'Average' 3.52 x10^-10 M divided by the KD
T1 construct: Analyte in the Biacore assay; also called antigen (c-Met); printed as "human c-Met antibody (Sino Biological, Beijing, China)"
T1 sequence (P08581 25-932 limits assumed): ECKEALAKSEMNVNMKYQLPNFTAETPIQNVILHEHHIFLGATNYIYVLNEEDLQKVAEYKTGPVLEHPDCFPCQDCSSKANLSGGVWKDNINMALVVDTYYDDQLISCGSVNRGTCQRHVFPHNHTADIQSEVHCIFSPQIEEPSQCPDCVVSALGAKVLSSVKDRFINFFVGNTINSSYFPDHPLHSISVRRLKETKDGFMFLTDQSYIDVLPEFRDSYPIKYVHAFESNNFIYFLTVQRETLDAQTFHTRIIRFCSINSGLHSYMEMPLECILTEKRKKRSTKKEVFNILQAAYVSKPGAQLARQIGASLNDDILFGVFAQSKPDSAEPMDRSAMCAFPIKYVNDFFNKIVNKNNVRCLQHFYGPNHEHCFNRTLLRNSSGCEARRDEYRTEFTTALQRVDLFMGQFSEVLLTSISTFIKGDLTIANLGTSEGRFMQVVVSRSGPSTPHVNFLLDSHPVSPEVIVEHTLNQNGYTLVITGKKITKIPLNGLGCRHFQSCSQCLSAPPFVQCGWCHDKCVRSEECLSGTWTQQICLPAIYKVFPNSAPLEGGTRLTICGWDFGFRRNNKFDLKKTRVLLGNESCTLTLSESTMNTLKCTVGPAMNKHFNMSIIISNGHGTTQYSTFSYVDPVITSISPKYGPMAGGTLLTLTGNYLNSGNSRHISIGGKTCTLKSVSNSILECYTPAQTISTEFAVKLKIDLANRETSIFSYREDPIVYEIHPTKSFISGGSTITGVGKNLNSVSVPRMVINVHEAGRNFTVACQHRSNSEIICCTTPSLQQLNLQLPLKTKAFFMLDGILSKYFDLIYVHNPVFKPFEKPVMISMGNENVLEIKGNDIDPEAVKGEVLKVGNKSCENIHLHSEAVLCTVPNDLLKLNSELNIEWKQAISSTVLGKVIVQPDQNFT
Reply: number alone, nothing else.

q: Which measured Index 1 (binding affinity, inverse KD relative to the Average 3.52) value corresponds to VH5/Vk2 (antibody, IgG1, V domains shown, Full IgG1/kappa expressed in HEK 293 EBNA cells) VH: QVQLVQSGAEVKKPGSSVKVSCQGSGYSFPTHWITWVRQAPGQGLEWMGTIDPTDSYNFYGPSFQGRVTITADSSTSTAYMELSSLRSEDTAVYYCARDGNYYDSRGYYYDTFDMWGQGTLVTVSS VL: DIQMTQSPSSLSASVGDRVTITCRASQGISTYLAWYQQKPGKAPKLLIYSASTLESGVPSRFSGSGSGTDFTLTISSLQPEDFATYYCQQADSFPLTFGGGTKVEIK ?
a: 0.838

q: What would you report for VH5/Vk0 (antibody, IgG1, V domains shown, Full IgG1/kappa expressed in HEK 293 EBNA cells) VH: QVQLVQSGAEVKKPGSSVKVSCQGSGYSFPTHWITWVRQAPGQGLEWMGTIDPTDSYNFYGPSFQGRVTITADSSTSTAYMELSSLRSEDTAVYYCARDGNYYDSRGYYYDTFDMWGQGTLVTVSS VL: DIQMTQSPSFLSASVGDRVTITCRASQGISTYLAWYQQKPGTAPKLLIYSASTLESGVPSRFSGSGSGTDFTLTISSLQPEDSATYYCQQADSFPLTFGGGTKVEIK ?
a: 1

q: What would you report for VH6/Vk2 (antibody, IgG1, V domains shown, Full IgG1/kappa expressed in HEK 293 EBNA cells) VH: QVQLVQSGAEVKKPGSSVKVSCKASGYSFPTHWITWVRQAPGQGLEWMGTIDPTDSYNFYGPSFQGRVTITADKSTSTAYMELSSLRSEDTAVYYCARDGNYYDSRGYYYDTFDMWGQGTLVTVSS VL: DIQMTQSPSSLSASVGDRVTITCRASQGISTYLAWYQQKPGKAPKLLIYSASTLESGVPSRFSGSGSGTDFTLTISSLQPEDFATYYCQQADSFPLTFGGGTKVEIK ?
a: 0.8
